Catalogue of molecules with associated melting point

# count of solved cases: 5
{"MOL": "CCN(CC)CCOc1ccn(C2CCCCC2)n1.O=C(O)C(=O)O", "melting point": "85 to 90 °C"}
{"MOL": "CCN(CC)CCOc1ccn(C(C)(C)C)n1.O=C(O)C(=O)O", "melting point": "96 to 98 °C"}
{"MOL": "O=C(O)C(=O)O.c1cn(C2CCCCC2)nc1OCCN1CCCCC1", "melting point": "105 to 110 °C"}
{"MOL": "O=C(O)C(=O)O.c1ccc(C2CCN(CCOc3ccn(C4CCCCC4)n3)CC2)cc1", "melting point": "122 to 128 °C"}
{"MOL": "CC(C)(C)n1ccc(OCCN2CCCC2)n1.O=C(O)C(=O)O", "melting point": "82 to 88 °C"}

Exercise: # lookup: melting point of "CC(C)(C)n1ccc(OCCN2CCCCC2)n1.O=C(O)C(=O)O"
Key: 123 to 126 °C

Exercise: # lookup: melting point of "O=C(O)C(=O)O.c1cn(C2CCCCC2)nc1OCCN1CCCC1"
Key: 117 to 119 °C

Exercise: # lookup: melting point of "O=C(O)C(=O)O.c1cn(C2CCCCC2)nc1OCCN1CCOCC1"
Key: 135 to 140 °C

* * *

# TEST TARGET: σ1-receptor (Cavia porcellus)
# Sequence (Q60492 whole entry): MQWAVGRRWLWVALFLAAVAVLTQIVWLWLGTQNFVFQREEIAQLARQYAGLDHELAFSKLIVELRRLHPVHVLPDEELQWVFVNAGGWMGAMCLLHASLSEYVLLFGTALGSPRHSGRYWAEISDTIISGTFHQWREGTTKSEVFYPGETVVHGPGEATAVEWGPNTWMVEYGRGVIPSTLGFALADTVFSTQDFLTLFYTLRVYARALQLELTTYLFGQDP
pKi: −log10 of the molar value.
REPORTED PROPERTY: pKi

{"COMPOUND": "O=C(O)C(=O)O.c1ccc(C2CCN(CCOc3ccn(C4CCCCC4)n3)CC2)cc1 [Example 11, oxalate]", "pKi": 8.07}
{"COMPOUND": "O=C(O)C(=O)O.c1cn(C2CCCCC2)nc1OCCN1CCCCC1 [Example 6, oxalate]", "pKi": 9.00}

A: O=C(O)C(=O)O.c1cn(C2CCCCC2)nc1OCCN1CCCC1 [Example 8, oxalate]
B: O=C(O)C(=O)O.c1cn(C2CCCCC2)nc1OCCN1CCOCC1 [Example 5, oxalate]
Exercise: Just curious, which one has the larger pKi reading, A or B ? State your choice using its label.
Key: A
